# TESTED SYSTEM: human TREX1 (Homo sapiens, UniProt Q9NSU2)
# Construct: N-terminally His-Tev tagged full length human TREX1; made in house; host or cells: E. coli
# Sequence (Q9NSU2 whole entry): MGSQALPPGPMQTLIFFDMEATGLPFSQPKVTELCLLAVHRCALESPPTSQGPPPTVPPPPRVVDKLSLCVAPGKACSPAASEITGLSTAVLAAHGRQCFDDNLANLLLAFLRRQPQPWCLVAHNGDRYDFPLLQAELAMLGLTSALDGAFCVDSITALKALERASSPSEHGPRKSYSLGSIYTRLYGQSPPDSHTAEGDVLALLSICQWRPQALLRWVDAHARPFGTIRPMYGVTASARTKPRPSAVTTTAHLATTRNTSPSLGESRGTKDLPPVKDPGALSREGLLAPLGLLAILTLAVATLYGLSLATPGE
# ASSAY REMARKS: hTREX1 Biochemical Assay (fluorescence, dsDNA substrate degradation)
# TEST CONTEXT: full length human TREX1, 4 h pre-incubation, 18 h reaction at 25° C.
OUTCOME MEASURE: IC50

Exercise: Item CC(c1nc(C(=O)Nc2cnoc2)c(O)c(=O)n1C)C(c1ccccc1)c1cc(Cl)ccc1C#N (single isomer, unassigned) [Example 8 Isomer 3] has what recorded IC50?
Key: 1 to 10 nM

Exercise: Now give it for CC(c1nc(C(=O)Nc2cnoc2)c(O)c(=O)n1C)C(c1ccccc1)c1ccccc1C#N (single isomer, unassigned) [Example 3 Isomer 4] too.
Key: < 1 nM

New cases:
Exercise: Item CC(c1nc(C(=O)Nc2cnoc2)c(O)c(=O)[nH]1)C(c1ccccc1C#N)c1ccccc1C#N (single isomer, unassigned) [Example 5 Isomer 2] has what recorded IC50?
Key: 1 to 10 nM

Exercise: Now give it for CC(c1nc(C(=O)Nc2cnoc2)c(O)c(=O)n1C)C(c1ccccc1)c1ccc(F)cc1C#N (single isomer, unassigned) [Example 7 Isomer 1] too.
Key: < 1 nM

Exercise: Now give it for C[C@H](c1nc(C(=O)Nc2cnoc2)c(O)c(=O)n1C)[C@H](c1ccccc1)c1ccccc1C(F)(F)F (single isomer, unassigned) [Example 14 Isomer 3] too.
Key: > 100 nM

Exercise: Now give it for CC(c1nc(C(=O)Nc2cnoc2)c(O)c(=O)n1C)C(c1ccccc1)c1ccccc1C#N (single isomer, unassigned) [Example 3 Isomer 3] too.
Key: > 100 nM

Exercise: Now give it for CC(c1nc(C(=O)Nc2cnoc2)c(O)c(=O)n1C)C(c1ccccc1)c1ccccc1C#N (single isomer, unassigned) [Example 3 Isomer 1] too.
Key: 1 to 10 nM

----------
Each entry below carries its recorded IC50.
# TESTED SYSTEM: human TREX1 (Homo sapiens, UniProt Q9NSU2)
# Construct: N-terminally His-Tev tagged full length human TREX1
# ASSAY REMARKS: hTREX1 Biochemical Assay (fluorescence, dsDNA substrate degradation)
# TEST CONTEXT: full length human TREX1, 4 h pre-incubation, 18 h reaction at 25° C.
# Description: Degradation of the dsDNA liberates free fluorophore to produce a fluorescent signal. […] After a 5-minute incubation at room temperature, plates were read in an EnVision plate reader (PerkinElmer) measuring fluorescence at 615 nm following excitation w/ 570 nm light. […]

Reference set, count: 3
Exercise: Item CC(c1nc(C(=O)Nc2cnoc2)c(O)c(=O)n1C)C(c1ccccc1)c1ccccc1C#N (single isomer, unassigned) [Example 3 Isomer 2] has what recorded IC50?
Key: > 0.1 µM

Exercise: Now give it for CC(c1nc(C(=O)Nc2cnoc2)c(O)c(=O)n1C)C(c1ccccc1)c1cc(Cl)ccc1C#N (single isomer, unassigned) [Example 8 Isomer 2] too.
Key: < 0.001 µM

Exercise: Now give it for CC(c1nc(C(=O)Nc2cnoc2)c(O)c(=O)n1C)C(c1ccccc1)c1cc(F)ccc1C#N (single isomer, unassigned) [Example 6 Isomer 2] too.
Key: > 0.1 µM

Please examine the following record next.
Exercise: Item C[C@H](c1nc(C(=O)Nc2cnoc2)c(O)c(=O)n1C)[C@H](c1ccccc1)c1ccccc1C(F)(F)F (single isomer, unassigned) [Example 14 Isomer 1] has what recorded IC50?
Key: > 0.1 µM
